test_summary: 4×4 Latin square comparison of i.v., oral and suppository administration (GC/MS plasma levels)
settings: monkey, plasma, iv, 0.5 mg/kg
assay_endpoint: concentration at 4 h
Answer format: value, then unit.

CCCCCc1cc(OC(=O)CCC(=O)O)c2c(c1)OC(C)(C)[C@@H]1CCC(C)=C[C@@H]21 = 18.5 ng/mL

Would you kindly look at the next entry?
Problem: Name the reported concentration at 4 h value associated with the compound CCCCCc1cc(O)c2c(c1)OC(C)(C)[C@@H]1CCC(C)=C[C@@H]21 [delta-9-tetrahydrocannabinol]
Result: 22.8 ng/mL

###

test_summary: 4×4 Latin square comparison of i.v., oral and suppository administration (GC/MS plasma levels)
settings: monkey, plasma
assay_endpoint: concentration at 24 h (ng/mL)
Number only, in ng/mL; omit the unit.

Problem: Name the reported concentration at 24 h value associated with the molecule CCCCCc1cc(OC(=O)CCC(=O)O)c2c(c1)OC(C)(C)[C@@H]1CCC(C)=C[C@@H]21
Result: 1.3
